MEASUREMENT_NOTES: M. tuberculosis growth inhibition, HTS (AID 1259417);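 note: bacteria grown with compound for 5 days at 37 °C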
EXPERIMENTAL_CONTEXT: M. tuberculosis growth inhibition; stronger effect = higher value; concentration not given here
Screen size: about 1,100 compounds; about 760 (69%) were called active. The set was probably picked from earlier hits. The list shows a part of the results.
Assign a class from recorded inhibition; defined classes: low (below 40%), intermediate (40% to below 90%), high (90% or more)

1. CC12CCC(C(=O)Oc3cccc4cccnc34)(CC1=O)C2(C)C (stereo not drawn): high
2. N#Cc1ccc(NC(=O)CSc2ccc(Cl)cc2)cc1: intermediate
3. COC(=O)c1c(NC(=O)c2c(F)c(F)c(F)c(F)c2F)sc2c1CCCCC2: high
4. Cc1ccc(-n2cnc3cc(NCc4cccs4)ccc32)cc1: low
5. Cc1cccc(NC(=S)NCCN2CCN(c3ccc(F)c(Cl)c3)CC2)c1C: low
6. Cc1cnc(NC(=O)CSc2ccc(Cl)cc2)s1: low
7. O=C(CSc1nnc(SCc2cccc3ccccc23)s1)Nc1ccccc1F: intermediate
8. Cc1ccc(Cn2c(=N)n(CC(O)c3ccc(Cl)c(Cl)c3)c3ccccc32)cc1 (stereo not drawn): high
9. O=C(Nc1ccc(Cl)cc1C(F)(F)F)c1ccc([N+](=O)[O-])o1: intermediate
10. O=S1(=O)C=CC2ON=C(c3ccc(Cl)cc3)C21 (stereo not drawn): high

Challenge: Which category fits this record: Cc1cc2c(cc1C)N(Cc1ccc(C(C)(C)C)cc1)C1=NCCCN12
Response given: high

Challenge: Which category fits this record: CCOc1cccc(C(=O)Nc2sc3c(c2C(N)=O)CCC3)c1
Response given: low

Challenge: Which category fits this record: O=S1(=O)C=CC2ON=C(c3ccc(C(F)(F)F)cc3)C21 (stereo not drawn)
Response given: high

Challenge: Which category fits this record: O=C(Nc1nc2c(Cl)cccc2s1)c1ccc([N+](=O)[O-])o1
Response given: low

Challenge: Which category fits this record: O=C(CCc1ccccc1)Nc1nnc(-c2ccc(Cl)s2)o1
Response given: low

====

Overview of recorded inhibition for various compounds
MEASUREMENT_NOTES: M. tuberculosis growth inhibition, HTS (AID 1259417);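 note: bacteria grown with compound for 5 days at 37 °C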
EXPERIMENTAL_CONTEXT: M. tuberculosis DsRed fluorescence growth inhibition; stronger effect = higher value; concentration not given here
Among all 1,100 compounds or so, about 760 (69%) were called active. So high a share suggests a set chosen from earlier hits. This is one part of the list.
Report as a plain number; the unit % is understood.

Guide cases for inhibition, answers given:
1) CCCCNC(=O)Nc1nnc(-c2ccc(Cl)cc2)o1: 14.7
2) CN(C)CC1CC(C(C)(C)C)CCC1=O (configuration not stated): 63.9
3) COc1nc(SC)nc2sc3c(c12)CCC3: 98.3

Entry under test: CC(C)(C)c1ccc(C(=O)Nc2ccc(S(=O)(=O)Nc3nccs3)cc2)cc1Br . Its inhibition was 1.5

Entry under test: COc1ccc(-n2c(C)nc3sc4c(c3c2=O)CCCC4)cc1 . Its inhibition was -4.71

Entry under test: O=C(CC12CC3CC(CC(C3)C1)C2)Nc1ccc(Br)cc1 . Its inhibition was 50.7

Entry under test: COC(=O)c1ccc(NC(=O)CC23CC4CC(CC(C4)C2)C3)cc1 . Its inhibition was 5.38

Entry under test: COc1cc(CNC23CC4CC(CC(C4)C2)C3)ccc1OCc1ccccc1 . Its inhibition was 99.4
